- target-under-test: T1, recombinant human IGF-II (Insulin-like Growth Factor II) (human, UniProt P01344 25-91, biotinylated (Biotinyl-IGF-II, GroPep) where immobilised in SPR, site not stated; not biotinylated in ITC and as SPR analyte)
- T1 construct: also called IGF2; IGF-2
- T1 sequence (P01344 25-91 limits assumed): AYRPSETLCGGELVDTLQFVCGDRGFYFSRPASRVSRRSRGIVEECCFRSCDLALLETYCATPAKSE
- assay: SPR, steady-state KD relative to wild type
Task for the reader: assign each of the following binders its reported Relative Affinity.

# example entries with known answers
# binder, Relative Affinity
records = [
    ("IGF2R domain 11 T1570A (amino acids 1511-1650, C-terminal His6 tag, from Pichia pastoris) (receptor) NEHDDCQVTNPSTGHLFDLSSLSGRAGFTAAYSEKGLVYMSICGENENCPPGVGACFGQARISVGKANKRLRYVDQVLQLVYKDGSPCPSKSGLSYKSVISFVCRPEAGPTNRPMLISLDKQTCTLFFSWHTPLACEQATHHHHHH", "0.11 fold (wild type = 1.00)"),
    ("IGF2R domain 11 Y1542A (amino acids 1511-1650, C-terminal His6 tag, from Pichia pastoris) (receptor) NEHDDCQVTNPSTGHLFDLSSLSGRAGFTAAASEKGLVYMSICGENENCPPGVGACFGQTRISVGKANKRLRYVDQVLQLVYKDGSPCPSKSGLSYKSVISFVCRPEAGPTNRPMLISLDKQTCTLFFSWHTPLACEQATHHHHHH", "0.16 fold (wild type = 1.00)"),
    ("wild type IGF2R domain 11 (amino acids 1511-1650) with C-terminal His6 tag, from Pichia pastoris (receptor, also called WT; wild type domain 11) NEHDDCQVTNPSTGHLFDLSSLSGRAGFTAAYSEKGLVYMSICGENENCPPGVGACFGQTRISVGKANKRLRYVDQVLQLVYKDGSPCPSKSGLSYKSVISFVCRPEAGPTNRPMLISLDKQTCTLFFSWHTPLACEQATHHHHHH", "1 fold (wild type = 1.00)"),
    ("IGF2R domain 11 Q1569A (amino acids 1511-1650, C-terminal His6 tag, from Pichia pastoris) (receptor) NEHDDCQVTNPSTGHLFDLSSLSGRAGFTAAYSEKGLVYMSICGENENCPPGVGACFGATRISVGKANKRLRYVDQVLQLVYKDGSPCPSKSGLSYKSVISFVCRPEAGPTNRPMLISLDKQTCTLFFSWHTPLACEQATHHHHHH", "0.8 fold (wild type = 1.00)"),
    ("IGF2R domain 11 S1596A (amino acids 1511-1650, C-terminal His6 tag, from Pichia pastoris) (receptor) NEHDDCQVTNPSTGHLFDLSSLSGRAGFTAAYSEKGLVYMSICGENENCPPGVGACFGQTRISVGKANKRLRYVDQVLQLVYKDGAPCPSKSGLSYKSVISFVCRPEAGPTNRPMLISLDKQTCTLFFSWHTPLACEQATHHHHHH", "0.61 fold (wild type = 1.00)"),
]

Consider the following items and state reported Relative Affinity for each.
1. IGF2R domain 11 E1544A (amino acids 1511-1650, C-terminal His6 tag, from Pichia pastoris) (receptor) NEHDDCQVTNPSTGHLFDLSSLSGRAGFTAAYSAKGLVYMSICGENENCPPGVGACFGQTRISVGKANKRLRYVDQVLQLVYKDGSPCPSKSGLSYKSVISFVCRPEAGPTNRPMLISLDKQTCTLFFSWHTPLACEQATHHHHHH
2. IGF2R domain 11 S1543A (amino acids 1511-1650, C-terminal His6 tag, from Pichia pastoris) (receptor) NEHDDCQVTNPSTGHLFDLSSLSGRAGFTAAYAEKGLVYMSICGENENCPPGVGACFGQTRISVGKANKRLRYVDQVLQLVYKDGSPCPSKSGLSYKSVISFVCRPEAGPTNRPMLISLDKQTCTLFFSWHTPLACEQATHHHHHH
3. IGF2R domain 11 K1545A (amino acids 1511-1650, C-terminal His6 tag, from Pichia pastoris) (receptor) NEHDDCQVTNPSTGHLFDLSSLSGRAGFTAAYSEAGLVYMSICGENENCPPGVGACFGQTRISVGKANKRLRYVDQVLQLVYKDGSPCPSKSGLSYKSVISFVCRPEAGPTNRPMLISLDKQTCTLFFSWHTPLACEQATHHHHHH
4. IGF2R domain 11 G1619R (amino acids 1511-1650, C-terminal His6 tag, from Pichia pastoris) (receptor, also called polymorphism G1619R) NEHDDCQVTNPSTGHLFDLSSLSGRAGFTAAYSEKGLVYMSICGENENCPPGVGACFGQTRISVGKANKRLRYVDQVLQLVYKDGSPCPSKSGLSYKSVISFVCRPEARPTNRPMLISLDKQTCTLFFSWHTPLACEQATHHHHHH

Resp:
2.79 fold (wild type = 1.00)
0.39 fold (wild type = 1.00)
0.36 fold (wild type = 1.00)
0.9 fold (wild type = 1.00)
